Hi there, I'd appreciate the recorded sensor-assay potency score (higher = more potent) for every entry that follows.
# Target of assay: MYBL1
# Experiment description: pooled miR-30 sensor sort-seq; sequence = guide strand; further: reference of the scale not given here
# Study conditions: shRNA
Give bare numbers.

[[record]]
chain = "TTGAAGTACTACTGGTAGCTGT"
target_of_assay = "MYBL1"
obs_value = 0.338

[[record]]
chain = "TTTCTCTACACTGCTTGCCTAT"
target_of_assay = "MYBL1"
obs_value = -0.646

[[record]]
chain = "TTTGATAGAATTATCAGTCCTT"
target_of_assay = "MYBL1"
obs_value = 1.06

[[record]]
chain = "TAATTTATCATCCTCGTCCCTT"
target_of_assay = "MYBL1"
obs_value = -0.0916


Go through the items and report each one's sensor-assay potency score (higher = more potent).
1. TAAAGGAACAGCTTCACTGTTG
2. TAGATCTTCTAATAGTAGGTGT
3. TAGAATTATCAGTCCTTCCTGG
4. TAGTAGGTGTTCTAAACCCTAC

1: -0.055; 2: 0.293; 3: 0.631; 4: -0.956

* * *

# Target of assay: C18orf34
# Experiment description: pooled miR-30 sensor sort-seq; sequence = guide strand
# Study conditions: shRNA
Hi there, I'd appreciate the recorded sensor-assay potency score (higher = more potent) for every entry that follows.
Numbers only.

Below: 2 sequences and their reported sensor-assay potency score (higher = more potent).
[[record]]
chain = "TTGAAGTTCCTGATTCTGCTTA"
obs_value = 0.774

[[record]]
chain = "TTTTTTATTGTCTTCCGTCAGT"
obs_value = -0.408


Go through the items and report each one's sensor-assay potency score (higher = more potent).
1. TTTTGTTGACACAAGGTGCTGG
2. TATTCTTTCTTGATCTCTGTTG
3. TTTCATCTCTCTTTTCTCCTGG
4. TACACTGTTATCTGAACTGTGT
5. TTGTCGAGACTTCTGATTCTTT
6. TTCTTCATTAACTTTTCTGTGT

1. 0.854
2. -0.0146
3. 0.616
4. 0.065
5. -0.716
6. 0.0915

* * *

# Target of assay: CDK9
# Experiment description: pooled miR-30 sensor sort-seq; sequence = guide strand
# Study conditions: shRNA
Hi there, I'd appreciate the recorded sensor-assay potency score (higher = more potent) for every entry that follows.
Answers are plain numbers.

Below: 6 sequences and their reported sensor-assay potency score (higher = more potent).
[[record]]
chain = "TACCAGAGTGTCACCACACGGT"
obs_value = 0.18

[[record]]
chain = "TATTTGGAAACTTCATCACAAA"
obs_value = -1.19

[[record]]
chain = "TTCTTCAGAGCCACCTTCTGGC"
obs_value = 0.0361

[[record]]
chain = "TCTCGTATTTGGAAACTTCATC"
obs_value = -1.02

[[record]]
chain = "TATATACTACCCTTGCAGCGGT"
obs_value = -0.627

[[record]]
chain = "TACTCGAACATGGACGTCAGGT"
obs_value = -0.285


Go through the items and report each one's sensor-assay potency score (higher = more potent).
1. TTGTCGATGAGGTCCAGTGCGT
2. AAGTACTCGAACATGGACGTCA
3. TTTTAGAAGCTGAAGGATCTTG
4. TTGATCTCCCGCAAGGCTGTAA

-0.728
0.37
-0.461
-0.379
